- MEASUREMENT_CONDITIONS: rat, in vivo
Attribute: Bile clearance (% ID)

COMPOUND	UNIT_TAG	Bile clearance (% ID)
CNC(=O)[C@H](Cc1cn(CCO[C@@H]2OC(C(=O)O)C(O)[C@H](O)C2O)nn1)NC(=O)CC[C@H](NC(=O)c1ccc(NCc2cnc3nc(N)nc(O)c3n2)cc1)C(=O)O (stereo partly shown)	% ID	3.9
CC[C@]1(O)C[C@H]2CN(CCc3c([nH]c4ccccc34)[C@@](C(=O)OC)(c3cc4c(cc3OC)N(C)[C@H]3[C@@](O)(C(=O)NNC(=O)OCCSSC[C@H](NC(=O)[C@@H](NC(=O)[C@@H](NC(=O)[C@H](CC(=O)O)NC(=O)[C@@H](NC(=O)CC[C@H](NC(=O)c5ccc(NCc6cnc7nc(N)[nH]c(=O)c7n6)cc5)C(=O)O)[C@@H](O)[C@H](O)[C@H](O)CO)[C@@H](O)[C@H](O)[C@H](O)CO)[C@@H](O)[C@H](O)[C@H](O)CO)C(=O)O)[C@H](O)[C@]5(CC)C=CCN6CC[C@]43[C@@H]65)C2)C1	% ID	3.2
CC[C@]1(O)C[C@H]2CN(CCc3c([nH]c4ccccc34)[C@@](C(=O)OC)(c3cc4c(cc3OC)N(C)[C@H]3[C@@](O)(C(=O)NNC(=O)OCCSSC[C@H](NC(=O)CCOCCOCCOCCOCCOCCOCCOCCOCCOCCOCCOCCOCCNC(=O)CC[C@H](NC(=O)c5ccc(NCc6cnc7nc(N)nc(O)c7n6)cc5)C(=O)O)C(=O)O)[C@H](O)[C@]5(CC)C=CCN6CC[C@]43[C@@H]65)C2)C1	% ID	7.9
CC[C@]1(O)C[C@@H]2CN(CCc3c([nH]c4ccccc34)[C@@](C(=O)OC)(c3cc4c(cc3OC)N(C)[C@H]3[C@@](O)(C(=O)NN)[C@H](O)[C@]5(CC)C=CCN6CC[C@]43[C@@H]65)C2)C1 [DAVLBH, deacetylvinblastine monohydrazide, reference compound]	% ID	58.0

----------
- PROTOCOL_TEXT: Cytotoxicity of bortezomib versus EC0501 (FIG. 14)
- Type: cell-based
MEASURED_PARAMETER: IC50

                    structure_smiles_string  value_measured
0  CC(C)C[C@H](NC(=O)[C@H](Cc1ccccc1)NC(=O)c1cnccn1)B(O)O           20 nM
